# ASSAY_PROCEDURE: gradient 5% acetonitrile 3 min, to 50% in 2 min, to 85% in 15 min, held 3 min, 100 µL/min
# REPORTED_CONDITIONS: column: Zorbax Extend-C18 2.1 x 50 mm; eluents: water / acetonitrile, 0.1% formic acid
Please map values of RP-LC retention time to classes as shown: lowest (below 700 s), middle (700 s to below 800 s), highest (800 s or more)

{"COMPOUND": "Cc1ccc(NC(=O)C(=O)NCCCN2CCOCC2)cc1F", "ASSIGNED_CATEGORY": "lowest"}
{"COMPOUND": "Cc1cc(NS(=O)(=O)c2cc(-c3[nH]ncc3C(=O)N3CCCC3)oc2C)ccc1F", "ASSIGNED_CATEGORY": "middle"}
{"COMPOUND": "O=C(NCCCN1CCCC1)C1CCCN(c2nccnc2Sc2ccccc2)C1 (stereo not drawn)", "ASSIGNED_CATEGORY": "lowest"}
{"COMPOUND": "O=C(NCCc1ccco1)c1cc2n(n1)CCCN(Cc1cccc(F)c1)C2=O", "ASSIGNED_CATEGORY": "middle"}
{"COMPOUND": "COc1ccc(-c2nc3cnccn3c2Nc2ccc(C(=O)NCCN3CCOCC3)cc2)cc1", "ASSIGNED_CATEGORY": "lowest"}
{"COMPOUND": "O=C(c1nc(-c2ccnc(N3CCCCC3)c2)no1)N1CCCC1", "ASSIGNED_CATEGORY": "lowest"}
{"COMPOUND": "O=C(Nc1cc(F)ccc1F)c1cc2sccc2n1Cc1ccc(F)cc1", "ASSIGNED_CATEGORY": "highest"}
{"COMPOUND": "COc1ccc(S(=O)(=O)c2csc3c2NC(=O)CC3c2ccsc2)cc1 (stereo not drawn)", "ASSIGNED_CATEGORY": "highest"}
{"COMPOUND": "O=C(NC1CC1)c1nc(C(=O)N2CCN(c3ccccc3)CC2)cs1", "ASSIGNED_CATEGORY": "middle"}
{"COMPOUND": "CCn1ccc2oc(C)c(C(=O)NCc3cccc(Br)c3)c2c1=O", "ASSIGNED_CATEGORY": "highest"}
{"COMPOUND": "CCn1cc(S(=O)(=O)Nc2ccccc2OC)c2cccnc21", "ASSIGNED_CATEGORY": "highest"}
{"COMPOUND": "CN1CCN(CCNC(=O)C2CCc3sc(C(=O)N4CCCC4)cc3C2)CC1 (stereo not drawn)", "ASSIGNED_CATEGORY": "lowest"}
{"COMPOUND": "CCc1ccc(CNC(=O)c2cn(CC)nc2S(=O)(=O)N2CCC(C)CC2)cc1", "ASSIGNED_CATEGORY": "highest"}
{"COMPOUND": "O=c1n(Cc2cccc(C(F)(F)F)c2)nc2c(S(=O)(=O)N3CCOCC3)cccn12", "ASSIGNED_CATEGORY": "highest"}
{"COMPOUND": "CCNc1cc(N2CCC(CCC(=O)NC(CC)CC)CC2)ncn1", "ASSIGNED_CATEGORY": "lowest"}
